# tgt: SD1-RBD of SARS-CoV-2 S (ancestral), aa 319-591 (SARS-CoV-2, ancestral (Wuhan-Hu-1; …, UniProt P0DTC2)
parameter: binding result

- binder: "sd1.032 (antibody, V domains shown) VH: QVQLVQSGAEVKRPGSSVKVSCKASGGTFNNYAMTWVRQAPGQGLEWMGGIIPMLGTENYAQKFQGRVTITADESTSTAHMELSSLRSEDTAVYYCARLTVPTPHSYYSYGLDAWGQGTTVTVSS VL: QSALTQPASVSGSPGQSITISCTGTSSDVGSYNLVSWFQQHAGRAPKLMIYEGNKRPSGISNRFSGSKSGNTASLTISGLQAEDEADYYCCSYAGSSTHVFGTGTKVTVL"
  value-measured: "binds"
